# PROCEDURE_SUMMARY: Solubility of levodopa in citrate buffer at varying pH and buffer strength
# Type: physicochemical
# ASSAY_CONDITIONS: pH 5, aqueous buffer, Citrate buffer 1.0M pH 5.0, read-out: Conc (levodopa solubility)

>  <COMPOUND>
N[C@@H](Cc1ccc(O)c(O)c1)C(=O)O [Levodopa]

>  <solubility, µg/mL>
4170

$$$$

###

# PROCEDURE_SUMMARY: Solubility of levodopa in citrate buffer at varying pH and buffer strength
# Type: physicochemical
# ASSAY_CONDITIONS: pH 4.5, aqueous buffer, Citrate buffer 1.0M pH 4.5, read-out: Conc (levodopa solubility)

>  <COMPOUND>
N[C@@H](Cc1ccc(O)c(O)c1)C(=O)O [Levodopa]

>  <solubility / mg/mL>
4.44

$$$$
